Data origin, for the record: the supplement of paper PMC7411054

Can you tell me phenotypically active for the items I'm about to list?
Test system: WPMY1-GM130-SQSTM1
METHOD_DESCRIPTION: phenotypically active (imaging signature differs from DMSO and reproducible) at any of 0.3-9 uM (binary (1 = active, 0 = inactive)); higher = active
DETAILS: treatment time: 24 h
Where a name gives a salt, the structure may show the parent alone.
Form: value (number only, do not type unit).

Given the compound O=C(O)[C@]1(O)C[C@H](O)[C@@H](O)[C@@H](O)C1 , what is its reported phenotypically active?
0

Record: COc1cc(NC(=O)c2cccc(-n3cc(NC(=O)Nc4cccc(C)c4)cn3)c2)cc(OC)c1OC
1

Same again, this time with S=c1[nH]cnc2nc[nH]c12
1

Record: Nc1ccn([C@@H]2O[C@H](CO)[C@@H](O)[C@@H]2O)c(=O)n1
1

Queued: Nc1nnc(Sc2ncc([N+](=O)[O-])s2)s1
0

Next compound: CN(CCOc1ccc(NS(C)(=O)=O)cc1)CCc1ccc(NS(C)(=O)=O)cc1 [dofetilide]
0

Also C[C@H](N[C@@H](CCc1ccccc1)C(=O)O)C(=O)N1CCC[C@H]1C(=O)O , if possible.
0

What do you get for C/C=C1/[C@H]2C=C(C)C[C@]1(N)c1ccc(=O)[nH]c1C2 ?
0

Check Cc1ccc(NC(=O)c2ccc(CN3CCN(C)CC3)cc2)cc1Nc1nc(-c2cccnc2)cs1 too.
1

Query CN(C)CCCNc1c2c(=O)n(C)c(=O)nc-2n(C)c2ccccc12 next
1

Then O=C(Nc1cccnc1)N1CCC(Cc2cccc(Oc3ccc(C(F)(F)F)cn3)c2)CC1 ?
1

Same for O=S(=O)(c1cccc2cnccc12)N1CCNCC1
1

// repeat for CC(C)(N)c1cc(C(=O)N[C@@H]2CCc3ccc(OC4=C5CCC(=O)N=C5NC=C4)cc3C2)cc(C(F)(F)F)c1 [ML 786 dihydrochloride] and report
1

Subsequent entry: CC(=O)[C@H]1CC[C@H]2[C@@H]3CCC4=CC(=O)CC[C@]4(C)[C@H]3CC[C@]12C
0

Also CCCCOc1cc(C(=O)NCCN(CC)CC)c2ccccc2n1 ?
0

Also need CC(=O)Nc1ccc(C(=O)Nc2ccccc2N)cc1 , thanks.
1

Please do the same for CC(=O)N[C@@H]1[C@@H](O[C@H](C)C(=O)O)[C@H](O)[C@@H](CO)O[C@@H]1O as well.
0

# iterate: CC[C@H](CO)Nc1nc(Nc2cccc(-c3ccccn3)c2)c2ncn(C(C)C)c2n1 [(R)-DRF053 dihydrochloride]
0

Same question, CC(C)Cn1c(=O)n(C)c(=O)c2[nH]cnc21 this time
0

Also check CC(=O)O[C@H]1C[C@@H]2CC[C@@H]3[C@H](CC[C@@]4(C)[C@H]3C[C@H]([N+]3(C)CCCCC3)[C@@H]4OC(C)=O)[C@@]2(C)C[C@@H]1N1CCCCC1
0

Now give it for O=[N+]([O-])c1cc([N+](=O)[O-])c(/C=C/c2ccc(Cl)c(Cl)c2)cc1/C=C/c1ccc(Cl)c(Cl)c1 too.
0

Continue with C/C(=N/NC(=N)N)c1ccc(NC(=O)Nc2ccc(/C(C)=N/NC(=N)N)cc2)cc1
1

Try this compound too: O=C(Nc1ccc(CN2CCOCC2)cc1)c1ccc(-c2cccc(Cl)c2)o1
0

Now consider CC(COc1ccccc1)N(CCCl)Cc1ccccc1 (configuration not stated) and answer again.
0

What would you report for Cn1cc(-c2ccc3nnc(Sc4ccc5ncccc5c4)n3n2)cn1 ?
1

Please answer likewise for O=C(NCCCNc1nc(Nc2cccc(NC(=O)N3CCCC3)c2)ncc1I)c1cccs1
1

How about this compound: NC[C@H](O)c1ccc(O)c(O)c1 [norepinephrine]
0

---

Answer each item with its documented phenotypically active.
System: A549-GM130-SQSTM1
METHOD_DESCRIPTION: phenotypically active (imaging signature differs from DMSO and reproducible) at any of 0.3-9 uM (binary (1 = active, 0 = inactive)); higher = active
DETAILS: treatment time: 24 h
Where a name gives a salt, the structure may show the parent alone.
Answer as a number with no unit attached.

Give its phenotypically active value. Item: O=C1NC(=O)C(c2ccccc2[N+](=O)[O-])=C1Nc1ccc(O)c(Cl)c1
1

Next compound up: COc1cc2ncnc(Nc3ccc(Cl)cc3F)c2cc1OC
1

Next compound: CCN[C@H]1C[C@H](C)S(=O)(=O)c2sc(S(N)(=O)=O)cc21 [dorzolamide]
0

Also check CN1[C@@H](CC(=O)c2ccccc2)CCC[C@H]1C[C@H](O)c1ccccc1 [Lobeline alpha (-) hydrochoride]
0

Query OCCOCCN1CCN(C2=Nc3ccccc3Sc3ccccc32)CC1 [Quetiapine hemifumarate] next
1

// query: C=CC(=O)Nc1cccc(Nc2nc(Nc3ccc(Oc4ccnc(C(=O)NC)c4)cc3)ncc2F)c1
1

Also Cc1ccc(NC(=O)c2cccc(N(C)C)c2)cc1NC(=O)c1ccc(O)cc1 ?
1

Then O=S(=O)(c1ccccc1)N(CC(F)(F)F)c1ccc(C(O)(C(F)(F)F)C(F)(F)F)cc1 ?
1

For NS(=O)(=O)C#Cc1ccccc1 [pifithrin-mu] then?
0

Can you handle Cc1ccc(NC(=O)c2ccc(CN3CCN(C)CC3)cc2)cc1Nc1nc(-c2cccnc2)cs1 [masitinib] next?
1

What do you have for O=C1c2ccccc2-c2nc3nonc3nc21 ?
1

Now this one: O=C([C@H](Cc1cccc(C(F)(F)F)c1)NS(=O)(=O)c1cc(F)c2c(c1)CCNC2)N1CCCC1 [(S)-PFI 2 hydrochloride]
1

One more compound: COc1ccc(S(=O)(=O)N(C(C)=O)c2ccccc2/C=C/c2cc[n+]([O-])cc2)cc1
1

Next compound up: C=C[C@H]1C[N@@]2CC[C@H]1C[C@@H]2[C@@H](O)c1ccnc2ccc(OC)cc12 [quinidine]
0

Query O=C1CN2Cc3c(ccc(Cl)c3Cl)N=C2N1 [Anagrelide hydrochloride] next
0

---

I'd appreciate it if you could supply phenotypically active values for the items below.
Test system: WPMY1-TP53BP1-CLTA
METHOD_DESCRIPTION: phenotypically active (imaging signature differs from DMSO and reproducible) at any of 0.3-9 uM (binary (1 = active, 0 = inactive)); higher = active
DETAILS: treatment time: 24 h
Give the figure by itself; no unit, no explanation.

If you can, please state the reported phenotypically active value of CC(C)NCCCC1(C(N)=O)c2ccccc2-c2ccccc21 [indecainide] .
0

Also Oc1ccc(Nc2nc(-c3ccc(Cl)cc3)cs2)cc1 ?
1

Ok, now COc1ccc(Cn2ccc3ccc(C(=O)NO)cc32)cc1
0

---

Test system: WPMY1-GM130-SQSTM1
METHOD_DESCRIPTION: phenotypically active (imaging signature differs from DMSO and reproducible) at any of 0.3-9 uM (binary (1 = active, 0 = inactive)); higher = active
DETAILS: treatment time: 24 h
Structures can show the parent of a compound that is named as a salt.
One label from this list, please: active, inactive

Could you check what this test reported for Clc1ccccc1C(c1ccccc1)(c1ccccc1)n1ccnc1 [Clotrimazole] ?
active

Another molecule: COc1cc2ncnc(Oc3cccc(NC(=O)Nc4cc(C(C)(C)C(F)(F)F)on4)c3)c2cc1OC
inactive

Here is the next molecule: CCc1cc(-c2n[nH]c(C)c2-c2ccc3c(c2)OCCO3)c(O)cc1O
active

Likewise for O=c1[nH]cc(F)c(=O)[nH]1 [5-Fluorouracil] ?
inactive

Repeat for the following molecule: O=C1CN2Cc3c(ccc(Cl)c3Cl)N=C2N1 [Anagrelide hydrochloride]
inactive

Next: CC1CNCCN1S(=O)(=O)c1cccc2cnccc12 (stereo not given) [H-7 dihydrochloride]
active

One more molecule: CC(C)C[C@H](NC(=O)OCC1c2ccccc2-c2ccccc21)C(=O)O
inactive

C=C1CC[C@H](O)C/C1=C\C=C1\CCC[C@]2(C)[C@@H]([C@H](C)/C=C/[C@H](C)C(C)C)CC[C@@H]12 [Calciferol] ?
inactive

// same read-out, input: CNC[C@H](O)c1ccc(O)c(O)c1 [epinephrine]
inactive

How about this molecule: O=c1ncccn1[C@@H]1O[C@H](CO)[C@@H](O)[C@H]1O [Zebularine]
inactive

Try CNC(=O)COC(=O)N1CCC(CCc2ccc(Cl)cc2)CC1 next.
inactive

Quick one: C[C@H]1C[C@@H]2[C@H]([C@@H](O)C[C@@]3(C)[C@H]2CC[C@]3(O)C(=O)CO)[C@@]2(C)C=CC(=O)C=C12 [methylprednisolone]
inactive

Can you check CC[C@@H]1C(=O)N(C)c2cnc(Nc3ccc(C(=O)NC4CCN(C)CC4)cc3OC)nc2N1C1CCCC1 next?
active

Same again, this time with CCc1cc2c(=O)c(-c3nc4ccccc4s3)coc2c(CN2CCCCC2)c1O
inactive

Now try CN1CCC(=C2c3ccccc3CC(=O)c3sccc32)CC1 [ketotifen] .
active

Next up: CC(C)NCC(O)c1ccc(NS(C)(=O)=O)cc1 (stereo not given) [sotalol]
inactive

What do you have for CC(C)COCC(CN(Cc1ccccc1)c1ccccc1)N1CCCC1 (stereo not given) [bepridil] ?
active

Request: CCC1(O)CC2CN(CCc3c([nH]c4ccccc34)C(C(=O)OC)(c3cc4c(cc3OC)N(C)C3C(O)(C(=O)OC)C(OC(C)=O)C5(CC)C=CCN6CCC43C65)C2)C1 (stereo not given) [Vinblastine sulfate]
active

For COc1cc2nc(N3CCN(C(=O)c4ccco4)CC3)nc(N)c2cc1OC [prazosin] then?
inactive

Quick one: CC(C)(C)c1ccc(C(O)CCCN2CCC(C(O)(c3ccccc3)c3ccccc3)CC2)cc1 (stereo not given) [terfenadine]
active

Param item: O=C(CCCc1ccc(-c2ccccc2F)cc1)Nc1ccc(O)cc1
active

Then this molecule: CC(C)C(=O)Nc1ncc(-c2cc(C(F)F)nn2-c2c(Cl)cccc2Cl)s1
active

Please do the same for O=C(O)CCCc1ccccc1 [Sodium 4-Phenylbutyrate] as well.
inactive

What would you report for Cc1ccc(Nc2nnc(-c3ccc([N+](=O)[O-])cc3)o2)cc1Cl ?
inactive

// query: COc1cc(OC)c2cc(-c3ccncc3)cnc2c1 [DMPQ dihydrochloride]
inactive

How about CC(=O)[C@H]1CC[C@H]2[C@@H]3C=CC4=CC(=O)CC[C@@]4(C)[C@@H]3CC[C@]12C [dydrogesterone] ?
inactive

Can you handle CC[C@]12CCCN3CCc4c(n(c5ccccc45)C(=O)C1)[C@@H]32 [Eburnamonine (-)] next?
inactive

Proceed to CC(CN1c2ccccc2Sc2ccccc21)N(C)C (stereo not given) [promethazine]
active

Another molecule: Cc1occc(=O)c1O [3-hydroxy-2-methyl-4-pyrone]
inactive

Another molecule: O=P(O)(O)C(O)(Cn1ccnc1)P(=O)(O)O [zoledronic-acid]
inactive

Could you do the same for NC(=O)Nc1sc(-c2ccc(F)cc2)cc1C(N)=O , please?
active

Same question, CCCCCCCCCN1C[C@H](O)[C@@H](O)[C@H](O)[C@H]1CO [N-Nonyldeoxynojirimycin] this time
inactive

For CC[C@H](C)[C@H](NC(=O)OCc1ccccc1)C(=O)N[C@@H](CCC(=O)OC(C)(C)C)C(=O)N[C@@H](C)C(=O)N[C@H](C=O)CC(C)C then?
active

Same for O=C(c1cccc(Br)c1)N1CCC(N2CCCC2)CC1 [UNC 926 hydrochloride]
inactive

Now give it for CCCc1nc(C(C)(C)O)c(C(=O)OCc2oc(=O)oc2C)n1Cc1ccc(-c2ccccc2-c2nnn[nH]2)cc1 [olmesartan-medoxomil] too.
inactive
